- Tested on: CCRF-CEM cells
- measurement.notes: Inhibition of growth of tumor cells, CCRF-CEM human lymphoblastic leukemia (MTT)
- Format: cell-based
- measurement.setup: Homo sapiens, CCRF-CEM, 120 h, read-out: Cell Culture IC50, CCRF-CEM
readout.kind: IC50

Sample Cc1nc2ccc(C)c(Sc3cccnc3)c2c(=O)[nH]1 [Compound 21A] ; IC50 observed: > 50 µM

----------
- target.system: human TS (thymidylate synthase) (Homo sapiens)
- Sequence (P04818 2-313 limits assumed): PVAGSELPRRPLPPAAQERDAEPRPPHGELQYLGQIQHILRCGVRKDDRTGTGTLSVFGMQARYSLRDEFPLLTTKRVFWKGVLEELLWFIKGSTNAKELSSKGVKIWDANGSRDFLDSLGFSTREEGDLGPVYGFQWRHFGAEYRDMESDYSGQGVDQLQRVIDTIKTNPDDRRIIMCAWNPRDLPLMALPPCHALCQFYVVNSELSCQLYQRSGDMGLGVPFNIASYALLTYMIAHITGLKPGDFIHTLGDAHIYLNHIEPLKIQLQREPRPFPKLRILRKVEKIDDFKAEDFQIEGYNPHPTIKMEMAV
- measurement.notes: Inhibition constants against 5,10-methylenetetrahydrofolate for thymidylate synthase, human enzyme (tritium release)
- Type: biochemical
- measurement.setup: Ki Data, human thymidylate synthase, cofactor as variable substrate, pH 7.6, 24° C.
readout.kind: log10(Ki) (log10 of the value in µM)
Hi team, quick reminder: these entries are log10 of Ki (µM).

Check out these entries, answers already filled in.
compound	log10(Ki)
Cc1nc2ccc(C)c(Sc3ccnc(N(C)C)c3)c2c(=O)[nH]1 [Compound 26A]	-1.10
Cc1nc2ccc(C)c(Sc3ccc(C(=O)N[C@@H](CCC(=O)O)C(=O)O)cc3)c2c(=O)[nH]1 [Compound 27A]	-2.10
COc1cc(Sc2c(C)ccc3nc(C)[nH]c(=O)c23)ccn1 [Compound 16A]	-1.32
Cc1nc2cccc(Sc3ccccn3)c2c(=O)[nH]1 [Compound 20A]	1.79
Cc1nc2ccc(C)c(Sc3ccc(C(=O)O)cc3)c2c(=O)[nH]1 [Compound 28A]	-0.94
Cc1cc(Sc2c(C)ccc3nc(C)[nH]c(=O)c23)ccn1 [Compound 12A]	-1.15
Cc1nc2ccc(C)c(Sc3ccc([N+](=O)[O-])cc3)c2c(=O)[nH]1 [Compound 10A]	-1.08
Cc1nc2ccc(C)c(Sc3ccncc3)c2c(=O)[nH]1 [Compound 8A]	-1.21

// for each compound in input: emit log10(Ki)
1. Cc1nc2ccc(C)c(Sc3ccncc3)c2c(=O)[nH]1 [Compound 23A]
2. Cc1nc2ccc(C)c(Sc3cccnc3)c2c(=O)[nH]1 [Compound 21A]

Reply |
[-0.89, 2.28]

----------
What follows is a record of pKi for E. coli TS (thymidylate synthase) (Escherichia coli, UniProt P0A884).
pKi: −log10 of the molar value.

Check out these entries, answers already filled in.
molecule	readout.kind	result
Cc1nc2cccc(Cn3cncc3-c3ccc([N+](=O)[O-])cc3)c2c(=O)[nH]1 [Compound 32A]	pKi	< 5.00
Cc1nc(O)c2c(Sc3ccccc3)cccc2n1	pKi	< 5.00
Cc1nc2cccc(Cn3ccc4cc(Cl)ccc43)c2c(=O)[nH]1	pKi	< 5.52

Read the next record carefully.
Sample `Cc1nc(O)c2c(Oc3ccccc3)cccc2n1` ; pKi observed: < 4.00

----------
- Tested on: GC3/M TK- cells
- measurement.notes: Inhibition of growth of tumor cells, thymidine kinase-deficient human colon adenocarcinoma GC3/M TK- (MTT)
- Assay type: cell-based
- measurement.setup: Homo sapiens, GC3/MTK-, 120 h, 5 days continuous exposure, MTT; read-out: Cell Culture IC50, GC3-M (TK-)
pIC50: −log10 of the molar value.
readout.kind: pIC50

Check out these entries, answers already filled in.
molecule	readout.kind	result
Cc1nc2cccc(Sc3ccncc3)c2c(=O)[nH]1	pIC50	< 4.57
Cc1nc2ccc(C)c(Sc3ccc(C(=O)O)cc3)c2c(=O)[nH]1 [Compound 28A]	pIC50	< 4.30
Cc1nc2cccc(Sc3ccccn3)c2c(=O)[nH]1 [Compound 20A]	pIC50	< 4.30
COc1ccc2nc(C)[nH]c(=O)c2c1Sc1ccncc1 [Compound 13A]	pIC50	4.49

Read the next record carefully.
Sample Cc1nc2ccc(C)c(Sc3nnc(C)s3)c2c(=O)[nH]1 [Compound 11A] ; pIC50 observed: < 5.48
